- Test system: K562
- test.summary: Anticancer activity against human K562 cells assessed as cell growth at 10^-5 M incubated for 48 hrs by SRB assay relative to control
- Assay type: functional
- condition.summary: K562, 48 h, dose 1 10^-5M, read-out: Activity
Decision: growth at 10 µM compared against 20%; not below it gives fulfilled, below it gives not fulfilled.

chemical_smiles=O=C(Nc1ncc(Cc2cccc(C(F)(F)F)c2)s1)c1ccc(-n2cnnn2)cc1 class=fulfilled
chemical_smiles=Cc1ccc(Cc2cnc(NC(=O)c3ccc(-n4cnnn4)cc3)s2)cc1 class=fulfilled
chemical_smiles=Cc1cccc(Cc2cnc(NC(=O)c3ccc(-n4cnnn4)cc3)s2)c1 class="not fulfilled"
chemical_smiles=O=C(Nc1ncc(Cc2cc(Cl)ccc2Cl)s1)c1ccc(-n2cnnn2)cc1 class=fulfilled
chemical_smiles=COc1ccc(Cc2cnc(NC(=O)c3ccc(-n4cnnn4)cc3)s2)cc1 class=fulfilled

Now let's try a different one.
For this compound, is measured growth at 10 µM 20% or higher? O=C(Nc1ncc(Cc2ccc(F)cc2)s1)c1ccc(-n2cnnn2)cc1
fulfilled

---

Catalogue of selectivity ratio values
- test.summary: Selectivity index, ratio of IC50 for human HaCaT cells to IC50 for human K562 cells
- Assay type: toxicity
- condition.summary: HaCaT cells and K562 cells, read-out: Ratio IC50
Reply with the value as a number alone.

chemical_smiles=Cc1ccc(Cc2cnc(NC(=O)c3ccc(-n4cnnn4)cc3)s2)cc1 observation_type="selectivity ratio" recorded_number=6.6

Consider now this further compound.
Looking up O=C(Nc1ncc(Cc2ccccc2)s1)c1ccc(-n2cnnn2)cc1 , I found its selectivity ratio recorded as 4

---

Listed here are compounds together with their documented IC50 at 72 h.
- test.summary: Antiproliferative activity against J774.2 cells assessed as inhibition of cell proliferation measured after 72 hrs by MTT assay
- Assay type: toxicity, cell-based
- condition.summary: mouse
I only need the number, in µM, no unit after it.

Here are 3 compounds together with their reported answers.
chemical_smiles=Cc1ccc(Cc2cnc(NC(=O)c3ccc(-n4cnnn4)cc3)s2)cc1 observation_type="IC50 at 72 h" recorded_number=59.8
chemical_smiles=CC(C)c1nnnn1-c1ccc(C(=O)Nc2ncc(Cc3ccccc3)s2)cc1 observation_type="IC50 at 72 h" recorded_number=8.94
chemical_smiles=O=C(/C=C/c1ccc(-n2cnnn2)cc1)Nc1ncc(Cc2ccccc2)s1 observation_type="IC50 at 72 h" recorded_number=37.2

Field: next compound
Documented IC50 at 72 h of COc1cccc2c1C(=O)c1c(O)c3c(c(O)c1C2=O)C[C@@](O)(C(=O)CO)C[C@@H]3O[C@H]1C[C@H](N)[C@H](O)[C@H](C)O1 : 0.64

---

- Tested on: SW-620
- test.summary: Inhibition of cell growth in human SW-620 cells incubated for 48 hrs by SRB assay
- Format: functional, cell-based
- condition.summary: SW-620, 48 h
pIC50 listing for selected compounds.
In plain terms, pIC50 is the concentration in mol/L turned into minus its base-10 logarithm.

chemical_smiles=O=C(Nc1ncc(Cc2cc(Cl)ccc2Cl)s1)c1ccc(-n2cnnn2)cc1 recorded_number=6.29

// next item, pIC50 requested
Record O=C(Nc1ncc(Cc2ccc(F)cc2)s1)c1ccc(-n2cnnn2)cc1 . Reported pIC50: 6.93

---

- Test system: T47D
- test.summary: Inhibition of cell growth in human T47D cells incubated for 48 hrs by SRB assay
- Assay type: functional, cell-based
observation.type: pIC50
pIC50 here is simply -log10 of the concentration when that concentration is written in mol/L.

pIC50 reported for this compound O=C(Nc1ncc(Cc2ccc(F)cc2)s1)c1ccc(-n2cnnn2)cc1 : 6.05

All values here come from ChEMBL document CHEMBL5335775.
